# Test system: Ba/F3-TPM3-NTRK1-G667C cells
# procedure_summary: Growth inhibition of Ba/F3-TPM3-NTRK1-G667C cells (Cell Titer-Glo)
# Format: cell-based
# test_parameters: 72 hours, CTG; read-out: inhibitory activity IC50 Ba/F3-TPM3-NTRK1-G667C
# IC50 per record follows

Example results:
compound | assay_system | IC50
CC1Nc2ccc3ncc(n3n2)-c2cc(ccn2)OCc2ncc(F)cc21 (centres unmarked) | Ba/F3-TPM3-NTRK1-G667C cells | < 100 nM
C[C@H]1Nc2ccc3ncc(n3n2)-c2cc(ncn2)COc2ccccc21 | Ba/F3-TPM3-NTRK1-G667C cells | < 100 nM
c1ccc2c(c1)CNc1ccc3ncc(n3n1)-c1cc(ccn1)CCO2 | Ba/F3-TPM3-NTRK1-G667C cells | 562 nM
Fc1cnc2c(c1)[C@H]1CCCN1c1ccc3ncc(n3n1)-c1cc(ncn1)CO2 | Ba/F3-TPM3-NTRK1-G667C cells | < 100 nM
Fc1ccc2c(c1)[C@H]1CCCN1c1ccc3ncc(n3n1)-c1cc(cnn1)CO2 | Ba/F3-TPM3-NTRK1-G667C cells | < 100 nM

Incoming: Given the compound `C[C@H]1Nc2ccc3ncc(n3n2)-c2cc(ccn2)N2CC[C@H](C2)Oc2ccc(F)cc21` , what is its reported IC50?
Outgoing: < 100 nM

Incoming: Please do the same for `C[C@@H]1Cc2ccnc(c2)-c2cnc3ccc(nn23)N[C@H](C)c2cc(F)ccc2O1` as well.
Outgoing: < 100 nM

Incoming: Try this compound too: `Fc1ccc2c(c1)[C@H]1CCCN1c1ccc3ncc(n3n1)-c1cc(cnn1)CCO2`
Outgoing: < 100 nM

Incoming: How about `C[C@@H]1Cc2ccnc(c2)-c2cnc3ccc(nn23)N[C@H](C)c2cc(F)cnc2O1` ?
Outgoing: < 100 nM

Incoming: Follow-up item: `Fc1cnc2c(c1)[C@H]1CCCN1c1ccc3ncc(n3n1)-c1cc(ccn1)CO2`
Outgoing: < 100 nM

Incoming: Check `C[C@H]1Cc2ccnc(n2)-c2cnc3ccc(nn23)N2CCC[C@@H]2c2cc(F)cnc2O1` too.
Outgoing: < 100 nM

Incoming: Likewise for `C[C@@H]1Cc2cc(ncn2)-c2cnc3ccc(nn23)N2C[C@@H](F)C[C@@H]2c2cc(F)ccc2O1` ?
Outgoing: 16.3 nM

###

# Test system: Ba/F3-TPM3-NTRK1-G595R cells
# procedure_summary: Growth inhibition of Ba/F3-TPM3-NTRK1-G595R cells (Cell Titer-Glo)
# Type: cell-based
# test_parameters: 72 hours, CTG; read-out: inhibitory activity IC50 Ba/F3-TPM3-NTRK1-G595R
assay_readout: IC50 (nM)
Hi! Could you send only the number? It should be in nM, unit omitted.

Consider the worked cases shown below.
molecule | result_units | IC50
Fc1cnc2c(c1)[C@H]1C[C@H](F)CN1c1ccc3ncc(n3n1)-c1nccc(n1)CO2 | nM | 0.9
Fc1ccc2c(c1)[C@H]1C[C@H](F)CN1c1ccc3ncc(n3n1)-c1nccc(n1)CCO2 | nM | 2.3

Incoming: Could you share what IC50 was measured for `C[C@@H]1Cc2cc(ncn2)-c2cnc3ccc(nn23)N2C[C@@H](F)C[C@@H]2c2cc(F)ccc2O1` , tested on Ba/F3-TPM3-NTRK1-G595R cells?
Outgoing: 1.5

Incoming: Then `Fc1cnc2c(c1)[C@H]1C[C@H](F)CN1c1ccc3ncc(n3n1)-c1nccc(n1)CCO2` ?
Outgoing: 1.7

Incoming: Same question for `Fc1cnc2c(c1)[C@H]1C[C@H](F)CN1c1ccc3ncc(n3n1)-c1cc(ccn1)CO2` please.
Outgoing: 0.3

Incoming: Subsequent entry: CC1Nc2ccc3ncc(n3n2)-c2cc(ccn2)CCOc2ccccc21 (stereo not drawn)
Outgoing: 297
